Tested on: HepG2
ASSAY NOTES: In vitro cytotoxicity, MTT colorimetric assay
Format: cell-based, human
CONDITION CONTEXT: ratio VERO vs HepG2
MEASUREMENT TYPE: fold more toxic against HepG2 than normal VERO cells (fold)
One number for each entry, in fold.

Known results for molecules:
INSERT INTO results (input_smiles, unit_string, meas_value) VALUES
  ('CCNC(=S)NS(=O)(=O)c1ccc(NC(=O)CN2C(=O)SC(=Cc3ccc(C)cc3)C2=O)cc1', 'fold', 4.99),
  ('O=C(CN1C(=O)SC(=Cc2ccccc2)C1=O)Nc1ccc(S(=O)(=O)NC(=S)NC2CCCCC2)cc1', 'fold', 6.93),
  ('CCNC(=S)NS(=O)(=O)c1ccc(NC(=O)CN2C(=O)SC(=Cc3ccccc3)C2=O)cc1', 'fold', 3.41),
  ('Cc1ccc(C=C2SC(=O)N(CC(=O)Nc3ccc(S(=O)(=O)NC(=S)Nc4ccccc4)cc3)C2=O)cc1', 'fold', 5.45),
  ('O=C(CN1C(=O)SC(=Cc2ccccc2)C1=O)Nc1ccc(S(=O)(=O)NC(=S)Nc2ccccc2)cc1', 'fold', 3.83);

Query molecule follows.
Incoming: I'd like to know its fold more toxic against HepG2 than normal VERO cells. The molecule in question is Cc1ccc(C=C2SC(=O)N(CC(=O)Nc3ccc(S(=O)(=O)NC(=S)NC4CCCCC4)cc3)C2=O)cc1
Outgoing: 7.74

###

Target chain: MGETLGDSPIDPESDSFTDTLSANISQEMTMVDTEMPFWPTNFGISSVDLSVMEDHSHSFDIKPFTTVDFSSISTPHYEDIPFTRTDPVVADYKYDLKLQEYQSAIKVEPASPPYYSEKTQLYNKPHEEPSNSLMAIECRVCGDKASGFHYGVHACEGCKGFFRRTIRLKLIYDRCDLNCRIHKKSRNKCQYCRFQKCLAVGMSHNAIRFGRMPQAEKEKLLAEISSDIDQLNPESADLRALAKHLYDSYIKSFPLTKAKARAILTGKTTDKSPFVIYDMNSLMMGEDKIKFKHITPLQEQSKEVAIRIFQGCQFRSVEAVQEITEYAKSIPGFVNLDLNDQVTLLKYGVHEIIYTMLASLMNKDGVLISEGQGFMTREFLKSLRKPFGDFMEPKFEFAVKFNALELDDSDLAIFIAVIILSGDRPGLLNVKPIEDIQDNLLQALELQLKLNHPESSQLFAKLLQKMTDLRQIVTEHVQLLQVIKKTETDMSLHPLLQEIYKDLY
MEASUREMENT TYPE: IC50 (nM)
Numbers only, in nM.

INSERT INTO measurements (compound, measurement_type, meas_value) VALUES
  ('CCNC(=S)NS(=O)(=O)c1ccc(NC(=O)CN2C(=O)SC(=Cc3ccccc3)C2=O)cc1 [Compound 6a]', 'IC50', 323),
  ('O=C(CN1C(=O)CSC1=O)Nc1ccc(S(=O)(=O)NC(=S)Nc2ccccc2)cc1 [Compound 5b]', 'IC50', 377),
  ('Cc1ccc(C=C2SC(=O)N(CC(=O)Nc3ccc(S(=O)(=O)NC(=S)Nc4ccccc4)cc3)C2=O)cc1 [Compound 7b]', 'IC50', 305),
  ('CCNC(=S)NS(=O)(=O)c1ccc(NC(=O)CN2C(=O)CSC2=O)cc1 [Compound 5a]', 'IC50', 393),
  ('O=C(CN1C(=O)SC(=Cc2ccccc2)C1=O)Nc1ccc(S(=O)(=O)NC(=S)Nc2ccccc2)cc1 [Compound 6b]', 'IC50', 308),
  ('Cc1ccc(C=C2SC(=O)N(CC(=O)Nc3ccc(S(=O)(=O)NC(=S)NC4CCCCC4)cc3)C2=O)cc1 [Compound 7c]', 'IC50', 296);

Incoming: I'd like to know its IC50. The compound in question is O=C(CN1C(=O)SC(=Cc2ccccc2)C1=O)Nc1ccc(S(=O)(=O)NC(=S)NC2CCCCC2)cc1 [Compound 6c]
Outgoing: 300

###

Tested on: isolated pancreatic islets of rats
ASSAY NOTES: In vitro insulin secretion assay (sandwich enzyme immunoassay)
Type: cell-based
CONDITION CONTEXT: Pancreatic islet; isolated rat pancreatic islets; concentration for 50% of the maximum action; n = 3; read-out: EC50 Insulin Secreting Activity
What pEC50 was measured for each of the following?
Numbers only, as −log10 of the molar value.

INSERT INTO measurements (compound, meas_value) VALUES
  ('Cc1ccc(C=C2SC(=O)N(CC(=O)Nc3ccc(S(=O)(=O)NC(=S)Nc4ccccc4)cc3)C2=O)cc1 [Compound 7b]', 6.12),
  ('CCNC(=S)NS(=O)(=O)c1ccc(NC(=O)CN2C(=O)CSC2=O)cc1 [Compound 5a]', 5.92),
  ('CCC1=C(C)CN(C(=O)NCCc2ccc(S(=O)(=O)NC(=O)N[C@H]3CC[C@H](C)CC3)cc2)C1=O [Glimiperide, reference compound]', 6.14),
  ('O=C(CN1C(=O)SC(=Cc2ccccc2)C1=O)Nc1ccc(S(=O)(=O)NC(=S)NC2CCCCC2)cc1 [Compound 6c]', 6.15),
  ('CCNC(=S)NS(=O)(=O)c1ccc(NC(=O)CN2C(=O)SC(=Cc3ccc(C)cc3)C2=O)cc1 [Compound 7a]', 6.09);

State recorded pEC50 for all listed compounds.
1. O=C(CN1C(=O)SC(=Cc2ccccc2)C1=O)Nc1ccc(S(=O)(=O)NC(=S)Nc2ccccc2)cc1 [Compound 6b]
2. CCNC(=S)NS(=O)(=O)c1ccc(NC(=O)CN2C(=O)SC(=Cc3ccccc3)C2=O)cc1 [Compound 6a]

Outgoing:
1. 6.11
2. 6.06

###

What pIC50 was measured for each of the following?
System: HepG2
ASSAY NOTES: In vitro cytotoxicity, MTT colorimetric assay
Type: cell-based, human
CONDITION CONTEXT: Homo sapiens, HepG2; MTT; mean ± S.D. of triplet separate experiments
Numbers only, as −log10 of the molar value.

INSERT INTO measurements (input_smiles, measurement_type, meas_value) VALUES
  ('O=C(CN1C(=O)SC(=Cc2ccccc2)C1=O)Nc1ccc(S(=O)(=O)NC(=S)Nc2ccccc2)cc1', 'pIC50', 4.97),
  ('O=C(CN1C(=O)SC(=Cc2ccccc2)C1=O)Nc1ccc(S(=O)(=O)NC(=S)NC2CCCCC2)cc1', 'pIC50', 5.05),
  ('O=C(CN1C(=O)CSC1=O)Nc1ccc(S(=O)(=O)NC(=S)NC2CCCCC2)cc1', 'pIC50', 4.68),
  ('NS(=O)(=O)c1ccc(NC(=O)CN2C(=O)CSC2=O)cc1', 'pIC50', 4.23),
  ('O=C(CN1C(=O)CSC1=O)Nc1ccc(S(=O)(=O)NC(=S)Nc2ccccc2)cc1', 'pIC50', 4.66);

Query compound follows.
Incoming: I'd like to know its pIC50. The compound in question is CCNC(=S)NS(=O)(=O)c1ccc(NC(=O)CN2C(=O)CSC2=O)cc1
Outgoing: 4.61

###

System: HepG2
ASSAY NOTES: In vitro cytotoxicity, MTT colorimetric assay
Format: cell-based, human
CONDITION CONTEXT: Homo sapiens, HepG2; MTT; mean ± S.D. of triplet separate experiments
MEASUREMENT TYPE: IC50 (µM)
One number for each entry, in µM.

Known results for molecules:
INSERT INTO results (input_smiles, meas_value) VALUES
  ('Cc1ccc(C=C2SC(=O)N(CC(=O)Nc3ccc(S(=O)(=O)NC(=S)Nc4ccccc4)cc3)C2=O)cc1', 9.65),
  ('Cc1ccc(C=C2SC(=O)N(CC(=O)Nc3ccc(S(N)(=O)=O)cc3)C2=O)cc1', 48.6);

Incoming: I'd like to know its IC50. The molecule in question is CCNC(=S)NS(=O)(=O)c1ccc(NC(=O)CN2C(=O)SC(=Cc3ccc(C)cc3)C2=O)cc1
Outgoing: 12.1
